Each record here notes measured log10 IC50.
target: Hepatocyte growth factor activator serine protease (Homo sapiens); experiment: Inhibition of recombinant N-terminal His-tagged HGFA (unknown origin) expressed in baculovirus-infected Sf9 cells incubated for 30 mins prior to cromogenic substrate addition by spectrophotometry
Sequence (Q04756 373-407 limits assumed): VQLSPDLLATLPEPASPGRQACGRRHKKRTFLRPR
Sequence (Q04756 408-655 limits assumed): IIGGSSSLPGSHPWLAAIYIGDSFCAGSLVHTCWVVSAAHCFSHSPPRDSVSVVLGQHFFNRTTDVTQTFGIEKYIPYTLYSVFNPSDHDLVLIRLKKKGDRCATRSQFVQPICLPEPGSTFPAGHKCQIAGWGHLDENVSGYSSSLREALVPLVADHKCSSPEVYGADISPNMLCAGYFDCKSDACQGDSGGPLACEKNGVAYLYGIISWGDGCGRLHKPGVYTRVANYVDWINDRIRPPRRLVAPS
Values below are the log10 of the recorded IC50, with nM as the unit.

The following compounds have reported results that may help.
N=C(N)Nc1ccc(C(=O)Oc2ccc(C(N)=O)cc2)cc1	3.83
N=C(N)Nc1ccc(C(=O)Oc2ccc([N+](=O)[O-])cc2Cl)cc1	2.48
COC(=O)c1ccc(OC(=O)c2ccc(NC(=N)N)cc2)cc1	3.04
N=C(N)c1ccc2cc(OC(=O)c3ccc(N=C(N)N)cc3)ccc2c1	2.18
N=C(N)Nc1ccc(C(=O)Oc2cccc([N+](=O)[O-])c2)cc1	3.48

Measured log10 IC50 of "CN(C)C(=O)COC(=O)Cc1ccc(OC(=O)c2ccc(NC(=N)N)cc2)cc1" : 4.51

The compound identified as "COC(=O)c1ccc2cc(OC(=O)c3ccc(NC(=N)N)cc3)ccc2c1" registered its log10 IC50 at 2.78

Short answer for "N=C(N)Nc1ccc(C(=O)Oc2ccc([N+](=O)[O-])cc2)cc1" : log10 IC50 was 2.91
